Test system: Mus musculus
Test: Tested for inhibition of pentylenetetrazole induced seizures in mice; Value is 1/8 of the LD50 range
Type: functional
RESULT_TYPE: Activity (mg/kg)

INSERT INTO measurements (compound_structure, target, readout_value) VALUES
  ('CCn1c(O)nnc1-c1cccc(C(F)(F)F)c1', 'Mus musculus', 50),
  ('CCn1nc(-c2ccccc2)n(C)c1=O', 'Mus musculus', 100),
  ('CCn1nc(-c2ccc(Cl)cc2)n(CC)c1=O', 'Mus musculus', 50),
  ('Cn1nc(-c2ccccc2Cl)n(C)c1=O', 'Mus musculus', 50),
  ('Cn1nc(-c2ccccc2F)n(C)c1=O', 'Mus musculus', 100),
  ('CCCCOc1cc(-c2nn(C)c(=O)n2C)ccc1OC', 'Mus musculus', 100),
  ('Cn1nc(-c2ccccc2)nc1O', 'Mus musculus', 100),
  ('Cn1nc(-c2ccccc2)n(C)c1=O', 'Mus musculus', 100);

====

Species: Mus musculus
Assay: Tested for inhibition of strychnine-induced seizures in mice.
Format: functional
In this section, each of the molecules is paired with its reported ED50.
RESULT_TYPE: ED50 (mg/kg)

INSERT INTO assay_data (molecule, cmp, readout_value) VALUES
  ('O=C1NC(=O)C(c2ccccc2)(c2ccccc2)N1', '>', 200),
  ('O=C1CN=C(c2ccccc2Cl)c2cc([N+](=O)[O-])ccc2N1', '=', 2),
  ('CCCC(CCC)C(=O)O', '>', 200),
  ('NC(=O)N1c2ccccc2C=Cc2ccccc21 [CARBAMAZEPINE]', '=', 61),
  ('CCC1(c2ccccc2)C(=O)NC(=O)NC1=O', '=', 52);

====

Test system: Gerbillinae
Experiment: Tested for its effect on Hypoxia induced neuronal damage
Assay type: functional
Listed below: Damage score values for each entry.
RESULT_TYPE: Damage score

INSERT INTO results (molecule, target, result_type, readout_value) VALUES
  ('CCn1c(-c2ccc(Cl)cc2)nn(C)c1=O', 'Gerbillinae', 'Damage score', 0.97),
  ('Cn1c(O)nnc1-c1ccccc1Cl', 'Gerbillinae', 'Damage score', 2.95),
  ('CCn1c(O)nnc1-c1ccc(Cl)cc1', 'Gerbillinae', 'Damage score', 2.64),
  ('Cl.c1ccc(C2(N3CCCCC3)CCCCC2)cc1 [PHENCYCLIDINE HYDROCHLORIDE]', 'Gerbillinae', 'Damage score', '<1.14');

====

Test: Tested for acute toxicity in mice after intraperitoneal administration; Value ranges from 100-200 mg/kg
Type: organism-based
Conditions: mouse, in vivo, ip
Below, each entry is listed with its recorded LD50.
RESULT_TYPE: LD50 (mg/kg)

INSERT INTO assay_data (compound_structure, result_type, units_label, readout_value) VALUES
  ('Cn1nc(-c2ccccc2)n(C)c1=S', 'LD50', 'mg/kg', 200),
  ('CCCCOc1cc(-c2nnc(O)n2C)ccc1OC', 'LD50', 'mg/kg', 200),
  ('Cn1nc(-c2ccc(Cl)c(Cl)c2)n(C)c1=O', 'LD50', 'mg/kg', 200);

====

Below: a set of entries, each annotated with reported Activity.
Test system: Mus musculus
Test: Tested for inhibition of pentylenetetrazole induced seizures in mice; Value is 1/16 of the LD50 range
Format: functional
RESULT_TYPE: Activity (mg/kg)

INSERT INTO results (compound_structure, target, units_label, cmp, readout_value) VALUES
  ('CCn1nc(-c2ccc(Cl)cc2)n(C)c1=O', 'Mus musculus', 'mg/kg', '=', 50),
  ('CCn1c(-c2cccc(C(F)(F)F)c2)nn(C)c1=O', 'Mus musculus', 'mg/kg', '=', 50),
  ('CCn1c(-c2ccc(Cl)cc2)nn(C)c1=O', 'Mus musculus', 'mg/kg', '=', 20),
  ('Cn1c(O)nnc1-c1ccccc1Cl', 'Mus musculus', 'mg/kg', '=', 50),
  ('Cn1nc(-c2ccc(Cl)cc2)n(C)c1=O', 'Mus musculus', 'mg/kg', '=', 50),
  ('Cn1c(O)nnc1-c1ccccc1', 'Mus musculus', 'mg/kg', '>', 50),
  ('Cn1c(O)nnc1-c1ccccc1F', 'Mus musculus', 'mg/kg', '>', 50),
  ('CCn1c(O)nnc1-c1ccc(Cl)cc1', 'Mus musculus', 'mg/kg', '=', 25);
